# target-under-test: hepatitis C virus RNA dependent polymerase (NS5B) (Hepatitis C virus genotype 1b, UniProt P26663)
# Construct: the RNA dependent RNA polymerase of HCV, specifically, the enzyme NS5B encoded by HCV
# Sequence (P26663 2420-3010): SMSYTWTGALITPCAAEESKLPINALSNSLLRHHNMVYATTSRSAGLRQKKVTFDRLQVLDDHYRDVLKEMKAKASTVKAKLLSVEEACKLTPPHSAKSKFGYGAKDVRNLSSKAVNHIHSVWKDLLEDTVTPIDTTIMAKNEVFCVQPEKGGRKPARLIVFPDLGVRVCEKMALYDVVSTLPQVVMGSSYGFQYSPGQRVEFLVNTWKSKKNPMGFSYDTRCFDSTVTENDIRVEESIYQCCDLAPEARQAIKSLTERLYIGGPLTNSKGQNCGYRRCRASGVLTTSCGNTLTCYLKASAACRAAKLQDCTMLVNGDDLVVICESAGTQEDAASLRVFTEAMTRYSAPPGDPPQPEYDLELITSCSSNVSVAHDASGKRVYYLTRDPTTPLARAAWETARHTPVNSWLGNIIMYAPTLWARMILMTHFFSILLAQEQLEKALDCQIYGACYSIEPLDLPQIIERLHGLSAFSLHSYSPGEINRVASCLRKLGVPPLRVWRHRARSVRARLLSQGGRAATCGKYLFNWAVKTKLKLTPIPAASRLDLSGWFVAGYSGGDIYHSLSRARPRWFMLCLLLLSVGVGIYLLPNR
# procedure-details: Inhibition of NS5B RNA dependent RNA polymerase activity
# Assay type: biochemical
# measurement-context: assay of Example 158A; read-out: IC50 (nM) Ex 158A (converted)
# Procedure: Inhibition of NS5B RNA Dependent RNA Polymerase Activity Representative compounds of the invention are tested for inhibitory activity against the hepatitis C virus RNA dependent polymerase (NS5B), using the assay described in WO2009/018657, herein incorporated by reference.
Field 'label' (enum: Condition met / Condition not met). Set to Condition met when IC50 is strictly under 100 nM; else Condition not met.

Reference set (4 entries):
Does the reported IC50 of CCc1nc(=O)c2cc(Oc3ncccc3C(F)(F)F)ccc2n1-c1cccnc1-c1ccc(C)cc1F stay below 100 nM? Condition not met

Does the reported IC50 of NC(=O)Cc1cccc(Oc2ccc3c(c2)c(=O)ncn3Cc2c(F)cc(F)cc2F)c1C(F)(F)F stay below 100 nM? Condition met

Does the reported IC50 of Cc1ccc(-c2ncccc2-n2cnc(=O)c3cc(Oc4ncccc4C(F)(F)F)ccc32)cc1 stay below 100 nM? Condition not met

Does the reported IC50 of Cc1ncccc1NC(=O)c1ccc(Oc2ccc3c(c2)c(=O)ncn3Cc2c(F)cc(F)cc2F)c(C(F)(F)F)c1 stay below 100 nM? Condition met

In the following, a different compound is considered.
Does the reported IC50 of COCCOc1ccnc(Oc2ccc3c(c2)c(=O)ncn3Cc2c(F)cc(F)cc2F)c1C(F)(F)F stay below 100 nM? Condition met

Hello, the source for this data is patent US20110230465A1, in case you need it.
